- System: SK-MEL-28 melanoma
- procedure text: NCI-60 one-dose screen, 48 h
- run conditions: 10 µM
The panel holds about 83,000 compounds, 20% with a hit somewhere; the sample as a whole holds those more often. Activity calls are given as the source filed them. How the source made its calls: active means growth percent below 10; inactive means the rest.
Possible outcomes: TRUE (active), FALSE (inactive)

* O=C(/C=C/c1cccc(Br)c1)c1nc2ccccc2n1Cc1ccc(Br)cc1 | TRUE
* C#CC[Se]C(=O)c1ccc2n[se]nc2c1 | FALSE
* C=CC[Se]C(=O)c1cncc(C(=O)[Se]CC=C)c1 | TRUE
* O=C(/C=C/c1ccccc1)c1nc2ccccc2n1Cc1ccc(Br)cc1 | TRUE
* COc1ccc(/C=C/C(=O)c2nc3ccccc3n2Cc2ccc(Br)cc2)cc1 | FALSE
* CCOP(=O)(OCC)C(NC(C)=O)C(=O)SCCN (stereo unspecified) | FALSE
